target: HDAC3 (Homo sapiens (Human), UniProt O15379); assay: Caliper HDAC enzymatic endpoint assay, HDAC3; format: biochemical; conditions: read-out: HDAC3 IC50 @3 hr; 3 hr preincubation
Sequence (O15379 whole entry): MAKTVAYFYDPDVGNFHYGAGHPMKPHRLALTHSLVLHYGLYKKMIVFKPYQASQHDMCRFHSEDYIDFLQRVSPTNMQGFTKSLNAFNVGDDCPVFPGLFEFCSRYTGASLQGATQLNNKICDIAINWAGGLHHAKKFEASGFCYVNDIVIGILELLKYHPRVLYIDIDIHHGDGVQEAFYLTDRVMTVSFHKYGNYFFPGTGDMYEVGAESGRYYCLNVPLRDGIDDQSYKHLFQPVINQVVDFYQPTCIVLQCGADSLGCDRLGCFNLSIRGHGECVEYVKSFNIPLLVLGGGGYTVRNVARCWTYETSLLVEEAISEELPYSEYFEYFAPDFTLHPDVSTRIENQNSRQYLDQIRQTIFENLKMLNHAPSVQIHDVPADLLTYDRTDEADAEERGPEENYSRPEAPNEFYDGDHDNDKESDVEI
Sequence (Q9Y618 395-489 partner): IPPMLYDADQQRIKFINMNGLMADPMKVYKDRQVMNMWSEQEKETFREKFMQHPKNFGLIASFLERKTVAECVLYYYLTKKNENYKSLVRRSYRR
measured.attribute: IC50 (nM)

a. Nc1cc(F)ccc1NC(=O)c1ccc(CNC(=O)OCc2cccnc2)cc1 [Compound 1A, reference compound]
b. CC(=O)Nc1ccc(C(=O)Nc2ccc(F)cc2N)cc1 [Compound 1]
Prompt line: Which of these two has the smaller recorded IC50: a or b ? Record your answer as the label of the chosen record.
Response line: a
(a: 36 nM, b: 68 nM)

* * *

molecular target: HDAC2 (Homo sapiens (Human), UniProt Q92769); test: Kinetics of the inhibition of HDAC2; details: HDAC2
Sequence (Q92769 whole entry): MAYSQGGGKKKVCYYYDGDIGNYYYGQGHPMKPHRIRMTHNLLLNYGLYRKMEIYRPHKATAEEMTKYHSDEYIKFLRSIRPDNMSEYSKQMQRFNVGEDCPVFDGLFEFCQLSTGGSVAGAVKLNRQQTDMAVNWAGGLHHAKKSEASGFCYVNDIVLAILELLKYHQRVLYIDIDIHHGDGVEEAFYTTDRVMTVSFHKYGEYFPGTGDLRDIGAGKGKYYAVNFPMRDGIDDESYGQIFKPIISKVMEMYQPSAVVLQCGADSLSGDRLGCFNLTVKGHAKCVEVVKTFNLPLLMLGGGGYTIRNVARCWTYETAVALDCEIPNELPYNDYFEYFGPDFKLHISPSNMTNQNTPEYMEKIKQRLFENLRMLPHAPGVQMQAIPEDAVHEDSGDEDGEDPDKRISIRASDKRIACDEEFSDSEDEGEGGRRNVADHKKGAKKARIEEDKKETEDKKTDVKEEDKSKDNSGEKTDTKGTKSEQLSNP
measured.attribute: Ki (µM)
Write the number in µM without appending the unit.

Record `CC(=O)Nc1ccc(C(=O)Nc2ccc(F)cc2N)cc1` , field Ki: 6.3

* * *

target: UniProtKB Q13547; assay: Caliper HDAC enzymatic endpoint assay, HDAC1; format: biochemical; details: read-out: HDAC1 IC50 @3 hr; 3 hr preincubation
measured.attribute: IC50 (nM)

I. Nc1cc(F)ccc1NC(=O)c1ccc(CNC(=O)OCc2cccnc2)cc1 [Compound 1A, reference compound]
II. CC(=O)Nc1ccc(C(=O)Nc2ccc(F)cc2N)cc1
Prompt line: Name the one with the greater IC50 value, either I or II as given. Record your answer as the label of the chosen record.
Response line: II
(II: 1250 nM, I: 120 nM)

* * *

molecular target: HDAC1 (Homo sapiens (Human), UniProt Q13547); test: Caliper HDAC enzymatic endpoint assay, HDAC1; format: biochemical; conditions: read-out: HDAC1 IC50 3 h Prein; Table 2, 3 h preincubation
Sequence (Q13547 whole entry): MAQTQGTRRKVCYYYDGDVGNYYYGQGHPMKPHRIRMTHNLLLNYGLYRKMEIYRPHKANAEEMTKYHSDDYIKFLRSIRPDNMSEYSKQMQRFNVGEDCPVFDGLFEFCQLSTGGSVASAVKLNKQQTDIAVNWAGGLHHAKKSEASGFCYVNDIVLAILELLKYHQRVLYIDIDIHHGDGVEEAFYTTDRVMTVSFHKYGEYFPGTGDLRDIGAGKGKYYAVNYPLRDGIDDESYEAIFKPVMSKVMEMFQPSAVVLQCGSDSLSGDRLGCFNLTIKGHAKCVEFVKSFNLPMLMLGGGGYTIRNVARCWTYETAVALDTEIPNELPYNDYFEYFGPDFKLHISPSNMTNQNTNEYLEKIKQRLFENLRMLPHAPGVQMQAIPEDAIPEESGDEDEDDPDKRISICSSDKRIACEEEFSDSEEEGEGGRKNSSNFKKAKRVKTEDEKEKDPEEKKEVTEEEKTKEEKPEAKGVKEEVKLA
measured.attribute: IC50 (µM)

Given the compound CC(=O)Nc1ccc(C(=O)Nc2cc(Br)ccc2N)cc1 [Compound 5] and test system HDAC1 (Homo sapiens (Human), UniProt Q13547), the measured IC50 is 1.73

a. CC(=O)Nc1ccc(C(=O)Nc2ccc(F)cc2N)cc1 [Compound 1]
b. CC(=O)Nc1ccc(C(=O)Nc2ccccc2N)c(F)c1 [Compound 12]
c. CC(=O)Nc1ccc(C(=O)Nc2cccc(F)c2N)cc1 [Compound 4]
Prompt line: Arrange the 3 entries by IC50 so the values rise. In your reply, arrange the labels in the requested order.
Response line: b, a, c

* * *

target: HDAC2 (Homo sapiens (Human), UniProt Q92769); experiment: Caliper HDAC enzymatic endpoint assay, HDAC2; format: biochemical; conditions: read-out: HDAC2 IC50 3 h Prein; Table 2, 3 h preincubation
pIC50: −log10 of the molar value.
measured.attribute: pIC50

Given the compound `CC(=O)Nc1ccc(C(=O)Nc2ccc(F)cc2N)c(F)c1` and test system HDAC2 (Homo sapiens (Human), UniProt Q92769), the measured pIC50 is 5.51

Given the compound `Nc1cc(F)ccc1NC(=O)c1ccc(F)cc1` and test system HDAC2 (Homo sapiens (Human), UniProt Q92769), the measured pIC50 is 4.93

Given the compound Nc1cc(F)ccc1NC(=O)c1ccccc1 [Compound 7, N-(2-amino-4-fluorophenyl)benzamide] and test system HDAC2 (Homo sapiens (Human), UniProt Q92769), the measured pIC50 is 4.90

Given the compound `CC(=O)Nc1ccc(C(=O)Nc2c(N)cccc2F)cc1` and test system HDAC2 (Homo sapiens (Human), UniProt Q92769), the measured pIC50 is 5.31

A. CC(=O)Nc1ccc(C(=O)Nc2cc(Br)ccc2N)cc1
B. CC(=O)Nc1ccc(C(=O)Nc2ccc(Cl)cc2N)cc1
Prompt line: Name the one with the greater pIC50 value, either A or B as given. Record your answer as the label of the chosen record.
Response line: A
(A: 5.45, B: 4.61)

* * *

target: UniProt:Q92769; assay: Kinetics of the inhibition of HDAC2
measured.attribute: Ki (µM)
Write the number in µM without appending the unit.

Record Nc1cc(F)ccc1NC(=O)c1ccc(CNC(=O)OCc2cccnc2)cc1 [Compound 1A, reference compound] , field Ki: 0.16

* * *

target: HDAC3 (Homo sapiens (Human), UniProt O15379); assay: Kinetics of the inhibition of HDAC3
measured.attribute: Ki (nM)
Write the number in nM without appending the unit.

Record Nc1cc(F)ccc1NC(=O)c1ccc(CNC(=O)OCc2cccnc2)cc1 [Compound 1A, reference compound] , field Ki: 93

* * *

target: UniProtKB Q92769; experiment: Caliper HDAC enzymatic endpoint assay, HDAC2; type: biochemical; conditions: read-out: HDAC2 IC50 3 h Preinc; Table 2A, 3 h preincubation
measured.attribute: IC50 (nM)

Record Nc1ccccc1NC(=O)c1ccc(CNC(=O)/C=C/c2cccnc2)cc1 [Cmpd 3A, reference compound] , field IC50: 23

a. Nc1cc(F)ccc1NC(=O)c1ccc(CNc2nccc(-c3cccnc3)n2)cc1 [Cmpd 2A, reference compound]
b. CC(=O)Nc1ccc(C(=O)Nc2ccc(F)cc2N)cc1
c. Nc1cc(F)ccc1NC(=O)c1ccc(CNC(=O)OCc2cccnc2)cc1 [Compound 1A, reference compound]
Prompt line: Arrange the 3 entries by IC50 so the values rise. In your reply, arrange the labels in the requested order.
Response line: a, c, b
(a: 18 nM, c: 157 nM, b: 1420 nM)

* * *

target: UniProtKB Q9UQL6
Sequence (Q9UQL6 whole entry): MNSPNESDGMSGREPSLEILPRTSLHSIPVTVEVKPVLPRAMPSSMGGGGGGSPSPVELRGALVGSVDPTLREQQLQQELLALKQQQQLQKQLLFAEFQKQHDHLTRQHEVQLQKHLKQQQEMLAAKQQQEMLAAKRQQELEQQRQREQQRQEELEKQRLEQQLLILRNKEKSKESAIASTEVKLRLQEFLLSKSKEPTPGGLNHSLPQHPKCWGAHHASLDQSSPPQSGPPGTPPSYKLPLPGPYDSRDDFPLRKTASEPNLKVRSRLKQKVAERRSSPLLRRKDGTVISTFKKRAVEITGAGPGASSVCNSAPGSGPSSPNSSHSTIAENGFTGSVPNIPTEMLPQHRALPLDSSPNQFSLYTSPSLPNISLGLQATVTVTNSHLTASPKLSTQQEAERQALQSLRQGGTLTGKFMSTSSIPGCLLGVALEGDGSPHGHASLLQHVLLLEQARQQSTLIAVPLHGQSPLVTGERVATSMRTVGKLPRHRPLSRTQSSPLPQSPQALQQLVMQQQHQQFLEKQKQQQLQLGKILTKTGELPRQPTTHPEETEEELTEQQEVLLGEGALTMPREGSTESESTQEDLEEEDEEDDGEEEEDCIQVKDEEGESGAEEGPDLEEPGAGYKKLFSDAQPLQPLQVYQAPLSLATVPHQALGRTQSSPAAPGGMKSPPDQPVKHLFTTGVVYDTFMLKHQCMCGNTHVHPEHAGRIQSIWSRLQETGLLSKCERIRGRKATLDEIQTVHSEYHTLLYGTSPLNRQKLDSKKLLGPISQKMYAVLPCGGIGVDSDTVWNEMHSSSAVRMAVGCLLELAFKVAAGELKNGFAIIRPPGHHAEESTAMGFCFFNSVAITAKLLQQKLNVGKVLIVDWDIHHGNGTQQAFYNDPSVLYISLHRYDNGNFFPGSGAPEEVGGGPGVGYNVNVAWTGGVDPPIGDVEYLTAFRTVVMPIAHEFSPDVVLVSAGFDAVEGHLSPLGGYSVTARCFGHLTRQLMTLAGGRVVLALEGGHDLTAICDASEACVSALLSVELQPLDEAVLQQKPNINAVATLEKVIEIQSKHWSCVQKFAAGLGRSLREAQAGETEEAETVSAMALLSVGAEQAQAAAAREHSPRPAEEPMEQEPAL
measured.attribute: IC50

Record CC(=O)Nc1ccc(C(=O)Nc2cc(-c3ccncc3)ccc2N)cc1 [BRD2492, reference compound] , field IC50: > 33 µM

* * *

test: Brain and plasma concentration in mice; assay type: in vivo; settings: mouse, plasma, other: injected (site of injection not given); read-out: T1/2 Plasma (converted)
measured.attribute: half-life (h)

P. Cc1ccc(C(=O)NCCCCCC(=O)Nc2ccc(F)cc2N)cc1 [Repligen 136, reference compound]
Q. CC(=O)Nc1ccc(C(=O)Nc2ccc(F)cc2N)cc1
Prompt line: Name the one with the greater half-life value, either P or Q as given. Record your answer as the label of the chosen record.
Response line: Q

* * *

molecular target: HDAC3 (Homo sapiens (Human), UniProt O15379); experiment: Kinetics of the inhibition of HDAC3; conditions: HDAC3
measured.attribute: pKi
// pKi here means minus log10 of the molar concentration (mol/L)

Record `CC(=O)Nc1ccc(C(=O)Nc2ccc(F)cc2N)cc1` , field pKi: 7.54

* * *

Documented T1/2 across a set of compounds
molecular target: HDAC1 (Homo sapiens (Human)); assay: Kinetics of the inhibition of HDAC1; details: HDAC1 residence

Record Nc1cc(F)ccc1NC(=O)c1ccc(CNC(=O)OCc2cccnc2)cc1 [Compound 1A, reference compound] , field T1/2: <4 min

Record CC(=O)Nc1ccc(C(=O)Nc2ccc(F)cc2N)cc1 [Compound 1] , field T1/2: ~2.5 min

Now take the following compound into account.
Record O=C(CCCCCCC(=O)Nc1ccccc1)NO [SAHA, N1-hydroxy-N8-phenyl-octanediamide, reference compound] , field T1/2: <4 min

* * *

biological target: UniProt Q92769; assay: Caliper HDAC enzymatic endpoint assay, HDAC2; assay type: biochemical; conditions: read-out: HDAC2 IC50 3 h Prein; Table 2, 3 h preincubation
pIC50: −log10 of the molar value.
measured.attribute: pIC50

Examples from the recorded data:
Given the compound `CC(=O)Nc1ccc(C(=O)Nc2ccc(C(F)(F)F)cc2N)cc1` and test system UniProt Q92769, the measured pIC50 is < 4.48

Given the compound `CC(=O)Nc1ccc(C(=O)Nc2cccc(F)c2N)cc1` and test system UniProt Q92769, the measured pIC50 is 5.35

Now take the following compound into account.
Given the compound `CC(=O)Nc1ccc(C(=O)Nc2ccc(C)cc2N)cc1` and test system UniProt Q92769, the measured pIC50 is < 4.48

* * *

molecular target: UniProt Q13547; assay: Caliper HDAC enzymatic endpoint assay, HDAC1; type: biochemical; settings: read-out: HDAC1 IC50 3 h Prein; Table 2, 3 h preincubation
measured.attribute: IC50 (µM)
Write the number in µM without appending the unit.

Record Nc1cc(F)ccc1NC(=O)c1ccccc1 [Compound 7, N-(2-amino-4-fluorophenyl)benzamide] , field IC50: 7.95

Now take the following molecule into account.
Record `CC(=O)Nc1ccc(C(=O)Nc2ccc(F)cc2N)c(F)c1` , field IC50: 1.38
